- Tested on: KM12
- Test description: NCI60 antitumor screening
- Assay type: cell-based, human
- Cond: Homo sapiens; 10 μM single dose; KM12 (colon cancer); read-out: growth inhibition percent (GI%)
In this section, each of the molecules is paired with its reported inhibition at 10 µM.

N#Cc1c(-c2ccc(F)cc2)nc(SCc2ccccc2)nc1N1CCNCC1: > 100%
N#Cc1c(-c2ccc(F)cc2)nc(SCc2ccc(F)cc2)nc1N1CCN(c2ccccc2)CC1: < 10%
CN1CCN(c2nc(SCc3ccccc3)nc(-c3ccc(F)cc3)c2C#N)CC1: 19.1%

Below: the item to evaluate.
// query Recorded inhibition at 10 µM of `N#Cc1c(-c2ccc(F)cc2)nc(SCc2ccc(F)cc2)nc1N1CCNCC1` , please.
// result > 100%
